All figures here come from patent US20250382376A1.

Measured On: T1, extracellular domain of human CD73 protein, C-terminus polyhistidine-tagged (human, UniProt P21589 27-547)
T1 construct: also the immunogen; also called CD73-ECD; human CD73-ECD
T1 sequence: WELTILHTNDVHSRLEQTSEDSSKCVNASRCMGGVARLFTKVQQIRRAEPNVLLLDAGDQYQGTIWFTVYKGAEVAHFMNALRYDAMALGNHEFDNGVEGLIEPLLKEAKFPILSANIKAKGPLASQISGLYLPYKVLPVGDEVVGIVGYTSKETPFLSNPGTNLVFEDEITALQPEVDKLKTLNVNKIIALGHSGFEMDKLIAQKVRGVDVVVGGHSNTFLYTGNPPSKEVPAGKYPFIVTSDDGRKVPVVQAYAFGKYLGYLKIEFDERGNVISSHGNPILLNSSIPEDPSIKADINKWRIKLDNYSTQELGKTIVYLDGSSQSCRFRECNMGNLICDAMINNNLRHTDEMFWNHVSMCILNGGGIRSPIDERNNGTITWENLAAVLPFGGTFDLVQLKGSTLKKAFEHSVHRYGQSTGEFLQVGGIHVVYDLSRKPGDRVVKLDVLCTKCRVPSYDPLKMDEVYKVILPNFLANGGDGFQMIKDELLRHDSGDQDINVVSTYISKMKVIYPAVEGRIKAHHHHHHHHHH
Experimental Protocol: ELISA on human CD73-ECD, 10 µL supernatant of transfected HEK293F cells; PBS blank 0.0615

Binder	ELISA (OD450)
chimeric nanobody 2-G9 (Fc fusion, Tested as supernatant of transiently transfected HEK293F cells) VHH: QLQLVESGGGLVQPGGSLRLSCAASGFLLDYYTIGWFRQAPGKELEGVSCISSSDSSPYDADSVKGRFTMSRDNANNTVYLQMNSLKPEDTAVYYCAAQRYYYCALRANVYDYWGQGTQVTVST	3.35
chimeric nanobody 1-E7 (Fc fusion, Tested as supernatant of transiently transfected HEK293F cells) VHH: QVQLVESGGGLVQPGGSLRLSCAASGFTLDYYNIGWFRQAPGKEREGVSCISNSDGSTYYADSVKGRFTISRDNAKNTVYLQMNSLKPEDTAVYYCAAYRGWHPSLDARVYDYWGQGTQVTVSS	1.61
chimeric nanobody 3-A3 (Fc fusion, Tested as supernatant of transiently transfected HEK293F cells) VHH: QVQLVESGGGSVQPGGSLRLSCAASGFPLDYYTIGWFRQAPGKELEGVSCISSSDSSPYDADSVKGRFTMSRDNANNTVYLQMNSLKPEDTAVYYCAAQRYYYCSLRANVYDYWGQGTQVTVSS	2.11
chimeric nanobody 2-B10 (Fc fusion, Tested as supernatant of transiently transfected HEK293F cells) VHH: QLQLVESGGGLVQPGGSLRLSCAASGFTLDDNAIGWFRQAPGKEREGVACMRTSDGDTYYADSVKGRFTISRDNAKNTMYLQMNSLKPEDTAVYYCAAALGTYYSGFYYLAGDGMDYWGKGTLVTVSS	1.28
chimeric nanobody 3-F1 (Fc fusion, Tested as supernatant of transiently transfected HEK293F cells) VHH: QVQLVESGVSLVQPGGSLRLSCAASGFTLDYYTIGWFRQAPGKELEGISCIRSSDSSPYDADSVKDRFTMSRDNANNTVYLQMNSLKPEDTADYYCAAQRYYYCSLTANVYDYWGQGTQVTVSS	1.11
